Origin of the recorded values: the supplement of paper PMC3545927

# target: furin, P09958;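 also: purified furin at 1:10 enzyme:substrate in 50 mM HEPES pH 7.5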
# Sequence (P09958 whole entry): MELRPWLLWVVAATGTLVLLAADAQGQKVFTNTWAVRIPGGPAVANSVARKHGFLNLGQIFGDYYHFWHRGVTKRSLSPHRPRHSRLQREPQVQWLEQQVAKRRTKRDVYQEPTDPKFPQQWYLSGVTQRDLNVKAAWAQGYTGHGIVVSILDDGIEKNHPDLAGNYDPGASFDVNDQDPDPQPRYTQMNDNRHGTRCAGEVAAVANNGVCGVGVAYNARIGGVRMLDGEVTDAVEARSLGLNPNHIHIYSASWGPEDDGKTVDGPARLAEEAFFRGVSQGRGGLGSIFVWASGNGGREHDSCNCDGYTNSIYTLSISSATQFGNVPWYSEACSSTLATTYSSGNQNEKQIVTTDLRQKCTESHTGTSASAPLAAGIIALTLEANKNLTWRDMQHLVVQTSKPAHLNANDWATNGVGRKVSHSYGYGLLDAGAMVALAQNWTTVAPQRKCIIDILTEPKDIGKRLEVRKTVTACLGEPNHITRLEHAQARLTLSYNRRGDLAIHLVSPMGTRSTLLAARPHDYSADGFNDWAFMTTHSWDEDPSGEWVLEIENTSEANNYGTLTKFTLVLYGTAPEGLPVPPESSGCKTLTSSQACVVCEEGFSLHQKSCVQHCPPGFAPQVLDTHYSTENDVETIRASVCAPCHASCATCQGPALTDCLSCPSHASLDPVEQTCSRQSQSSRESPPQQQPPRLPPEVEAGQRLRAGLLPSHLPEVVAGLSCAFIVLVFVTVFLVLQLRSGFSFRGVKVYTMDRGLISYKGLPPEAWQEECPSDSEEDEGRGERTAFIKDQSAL
# measurement-notes: furin cleavage Z-score vs untreated control; higher = more cleavage, active = 3.5 or more, inactive = 1 or less, 8 variable residues between constant flanks
# condition-info: 30 min
The other results are listed elsewhere or left out. The true hit rate is not given.
Permitted responses: true (active), false (inactive)

Each sequence tested received a call. Report the one for CAHLEVVTSTAGNASASA [HC2275] .
false

Each sequence tested received a call. Report the one for CAVSRRSRGIAGNASASA [FS-2857] .
true

Each sequence tested received a call. Report the one for CARQGRFDRSAGNASASA [FS-190] .
true

Each sequence tested received a call. Report the one for CATNLRIKRDAGNASASA [FS-568] .
true

Each sequence tested received a call. Report the one for CANFHKARRFAGNASASA [FS-1143] .
false

Each sequence tested received a call. Report the one for CAFNLRMKRDAGNASASA [FS-525] .
true

Each sequence tested received a call. Report the one for CAEWPCHRPSAGNASASA [HC2328] .
false
